Taken from patent US10294202B2.

# Test system: lambsquarters
# protocol_details: Test C pre-/postemergence herbicide test
# Format: in vivo, Chenopodium album
# test_parameters: Preemergence, 31 g ai/ha; scale 0 to 100, 0 is no effect and 100 is complete control
# Text: […]
Give measured Lambsquarters plant response rating for each item. Keep answers brief.
Give bare numbers.

Below, 4 compounds whose answers are already recorded.
O=C1NCC(c2ccc(C(F)(F)F)cc2)C1C(=O)Nc1ccccc1Cl (stereo not shown) ... 85
O=C1NCC(c2cccc(C(F)(F)F)c2)C1C(=O)Nc1ccccc1Cl (racemic) ... 0
O=C1NCC(c2ccc(C(F)(F)F)nc2)C1C(=O)Nc1ccccc1F (racemic) ... 100
O=C1NCC(c2ccc(C(F)(F)F)c(F)c2)C1C(=O)Nc1cccc(F)c1F (racemic) ... 0

For every item in the list below, what is its measured Lambsquarters plant response rating?
1. O=C1NCC(c2cccc(Br)c2)C1C(=O)Nc1cccc(F)c1F (stereo not shown)
2. O=C1NCC(c2cccc(Br)c2)C1C(=O)Nc1ccccc1F (stereo not shown)
3. CN1CC(c2cccc(C(F)(F)F)c2)C(C(=O)Nc2ccccc2F)C1=O (stereo not shown)
4. O=C1NCC(c2ccc(F)cc2)C1C(=O)Nc1cccc(F)c1F (racemic)
5. O=C1NCC(c2cc(F)cc(F)c2)C1C(=O)Nc1ccc(F)cc1F (racemic)
6. O=C1NCC(c2cccc(OC(F)F)c2)C1C(=O)Nc1cccc(F)c1F (stereo not shown)

1. 0
2. 0
3. 20
4. 25
5. 0
6. 50

---

Please provide measured Plant response rating, Surinam Grass for the entries that follow.
# System: surinam grass
# protocol_details: Test C pre-/postemergence herbicide test
# Format: in vivo, Brachiaria decumbens
# test_parameters: Preemergence, 62 g ai/ha; scale 0 to 100
Numbers only.

Check out these entries, answers already filled in.
O=C1NCC(c2ccc(F)cc2)C1C(=O)Nc1ccccc1F (racemic) ... 95
O=C1NCC(c2cccc(Br)c2)C1C(=O)Nc1ccccc1F (stereo not shown) ... 0
O=C1NCC(c2ccc3c(c2)OC(F)(F)O3)C1C(=O)Nc1cccc(F)c1F (stereo not shown) ... 60

// moving on: another record for Plant response rating, Surinam Grass
Hello, please tell me recorded Plant response rating, Surinam Grass for this one: O=C1NCC(c2cccc(Br)c2)C1C(=O)Nc1cccc(F)c1F (stereo not shown) 50

---

Exercise: state measured Plant response rating, Pigweed for each of the compounds provided.
# Test system: pigweed
# protocol_details: Test C pre-/postemergence herbicide test
# Type: in vivo, Amaranthus retroflexus
# test_parameters: Preemergence, 125 g ai/ha; scale 0 to 100 (0 no effect, 100 complete control)
Answers are plain numbers.

Some solved cases for reference:
O=C1NCC(c2ccc(C(F)(F)F)nc2)C1C(=O)Nc1cccc(F)c1F (racemic) ... 98
O=C1NCC(c2cccc(C(F)F)c2)C1C(=O)Nc1cccc(F)c1F (racemic) ... 0
O=C1NCC(c2cccc(C(F)(F)F)c2)C1C(=O)Nc1ccc(F)cc1F (racemic) ... 0
O=C1NCC(c2ccc3c(c2)OC(F)(F)O3)C1C(=O)Nc1cccc(F)c1F (stereo not drawn) ... 70
CN1CC(c2ccc(C(F)(F)F)cc2)C(C(=O)Nc2ccccc2F)C1=O (stereo not drawn) ... 85

We now examine a further compound.
Using known records, supply Plant response rating, Pigweed for O=C1NCC(c2cccc(OC(F)(F)F)c2)C1C(=O)Nc1cccc(F)c1F (stereo not drawn) 85

---

# System: ducksalad
# protocol_details: Test C flooded paddy test
# Type: in vivo, Heteranthera limosa
# test_parameters: Flood, 250 g ai/ha; scale of 0 to 100 where 0 is no effect and 100 is complete control; 13 to 15 days
measurement_label: Plant response rating, Ducksalad

CN1CC(c2ccc(F)cc2)C(C(=O)Nc2cccc(F)c2F)C1=O (centres unmarked) [Compound 271] ... 100

Working through the 4 compounds below one at a time, give Plant response rating, Ducksalad for each.
1. O=C1NCC(c2cccc(C(F)(F)F)c2)C1C(=O)Nc1ccccc1Cl (centres unmarked) [Compound 312]
2. CC(C)(C)c1cccc(C2CNC(=O)C2C(=O)Nc2cccc(F)c2F)c1 (racemic) [Compound 200]
3. O=C1NCC(c2cccc(Cl)c2)C1C(=O)Nc1cccc(F)c1F (racemic) [Compound 275]
4. O=C1NCC(c2cccc(C(F)(F)F)c2)C1C(=O)Nc1cccc(Cl)c1F (centres unmarked) [Compound 344]

95
70
100
60

---

# Tested on: barnyardgrass
# protocol_details: Test C pre-/postemergence herbicide test
# Type: in vivo, Echinochloa crus-galli
# test_parameters: Postemergence; 250 g ai/ha; scale 0 to 100 (0 no effect, 100 complete control)
measurement_label: Plant response rating, Barnyardgrass
One number for each entry.

Worked cases, answers included:
O=C1NCC(c2cccc(OC(F)F)c2)C1C(=O)Nc1ccc(F)c(F)c1F (stereo not shown) ... 80
Cc1cccc(NC(=O)C2C(=O)NCC2c2cccc(C(F)(F)F)c2)c1 (stereo not shown) ... 70
O=C1NCC(c2cccc(C(F)(F)F)c2)C1C(=O)Nc1ccc(F)c(F)c1F (stereo not shown) ... 85

Specify Plant response rating, Barnyardgrass for O=C1NCC(c2cc(F)cc(F)c2)C1C(=O)Nc1ccc(F)cc1F (racemic) and stop. 75

---

# Tested on: kochia
# protocol_details: Test A pre-/postemergence herbicide test
# Assay type: in vivo, Kochia scoparia
# test_parameters: Postemergence, 125 g ai/ha; 0 to 100 scale, 0 is no effect, 100 is complete control
# Text: […]
Field: Plant response rating, Kochia. Provide a value for each of the molecules that follow.
One number for each entry.

Some solved entries appear below for comparison.
O=C1NCC(c2ccc(C(F)(F)F)cc2)C1C(=O)Nc1ccccc1Cl (centres unmarked) [Compound 233] ... 60
COc1ccc(C2CNC(=O)C2C(=O)Nc2cccc(F)c2F)cc1C(F)(F)F (centres unmarked) [Compound 234] ... 0
O=C1NCC(c2ccc(OC(F)F)cc2)C1C(=O)Nc1ccccc1Cl (centres unmarked) [Compound 226] ... 30
O=C1NCC(c2cccc(OC(F)F)c2)C1C(=O)Nc1ccccc1Cl (centres unmarked) [Compound 229] ... 10

Now let's try a different one.
Consider the molecule Cc1cc(NC(=O)C2C(=O)NCC2c2cccc(C(F)(F)F)c2)ccc1F (racemic) [Compound 185] . State its measured Plant response rating, Kochia. 0

---

# System: blackgrass
# protocol_details: Test A postemergence herbicide test
# Format: in vivo, Alopecurus myosuroides
# test_parameters: 125 g ai/ha, 0 to 100 scale, 0 is no effect, 100 is complete control
Please go through the items and note down their Plant response rating, Blackgrass.
One number for each entry.

Study these solved cases before continuing.
O=C1NCC(c2cccc(C(F)(F)F)c2)C1C(=O)Nc1cccc(F)c1 (racemic) ... 20
CCc1cccc(C2CNC(=O)C2C(=O)Nc2cccc(F)c2F)c1 (racemic) ... 50
Cc1ccccc1NC(=O)C1C(=O)NCC1c1cccc(OC(F)F)c1 (stereo not shown) ... 20

// for each compound in input: emit Plant response rating, Blackgrass
1. O=C1NCC(c2cc3ccccc3o2)C1C(=O)Nc1cccc(F)c1F (stereo not shown)
2. CON(C(=O)C1C(=O)NCC1c1ccc(F)c(F)c1)c1cc([N+](=O)[O-])ccc1F (stereo not shown)

1. 0
2. 0

---

Assignment: determine reported Plant response rating, Foxtail, Giant for the given compounds.
# Test system: giant foxtail
# protocol_details: Test A pre-/postemergence herbicide test
# Type: in vivo, Setaria faberii
# test_parameters: Postemergence, 125 g ai/ha; 0 to 100 scale, 0 no effect, 100 complete control

Recorded Plant response rating, Foxtail, Giant, per entry:
O=C1NCC(c2ccc(F)c(F)c2)C1C(=O)Nc1cccc(F)c1F (racemic) [Compound 107] ... 10
O=C1NCC(c2ccsc2)C1C(=O)Nc1ccccc1C(F)(F)F (racemic) [Compound 28] ... 0

Batch: Plant response rating, Foxtail, Giant for all items listed.
1. N#Cc1ccccc1NC(=O)C1C(=O)NCC1c1ccc(Cl)c(Cl)c1 (racemic) [Compound 15]
2. O=C1NCC(c2cccc(C(F)(F)F)c2)C1C(=O)Nc1ccccc1F (racemic) [Compound 3]
3. O=C1NCC(c2ccc(F)c(Cl)c2)C1C(=O)Nc1cccc(F)c1F (centres unmarked) [Compound 59]
4. O=C1NCC(c2ccc(F)c(F)c2)C1C(=O)Nc1cccc(F)c1 (racemic) [Compound 12]

1: 0; 2: 60; 3: 80; 4: 60

Hello, I would appreciate it if you could give Plant response rating, Foxtail, Giant for each entry below.
1. CC1NC(=O)C(C(=O)Nc2ccccc2C(F)(F)F)C1c1ccc(F)c(F)c1 (mixture of isomers) [Compound 10]
2. O=C1NCC(c2cccc(OC(F)(F)C(F)F)c2)C1C(=O)Nc1ccc(F)cc1F (racemic) [Compound 122]
3. O=C1NCC(c2cccc(C(F)(F)F)c2)C1C(=O)Nc1ccccc1C(F)(F)F (racemic) [Compound 4]
4. Cc1ccc(C2CNC(=O)C2C(=O)Nc2ccccc2F)cc1F (racemic) [Compound 144]
5. Cc1cc(C2CNC(=O)C2C(=O)Nc2ccccc2Cl)ccc1F (racemic) [Compound 143]
6. O=C1NCC(c2cccc(C(F)(F)F)c2)C1C(=O)Nc1nncs1 (racemic) [Compound 111]
7. CC1NC(=O)C(C(=O)Nc2ccccc2F)C1c1ccc(F)c(F)c1 (mixture of isomers) [Compound 8]

[0, 80, 60, 40, 20, 0, 0]

Please supply Plant response rating, Foxtail, Giant for each of the following items, keeping them in order.
1. O=C1NCC(c2ccc(Cl)cc2)C1C(=O)Nc1ccccc1F (racemic) [Compound 87]
2. O=C1NCC(c2ccc(F)c(C(F)(F)F)c2)C1C(=O)Nc1ccccc1C(F)(F)F (racemic) [Compound 78]
3. N#Cc1ccccc1NC(=O)C1C(=O)NCC1c1ccccc1 (racemic) [Compound 86]

[50, 80, 0]

Tell me Plant response rating, Foxtail, Giant reported for O=C1NCC(c2ccccc2)C1C(=O)Nc1ccccc1F (racemic) [Compound 81] 20
